Biological target: UniProt:P18089
Sequence (P18089 1-450): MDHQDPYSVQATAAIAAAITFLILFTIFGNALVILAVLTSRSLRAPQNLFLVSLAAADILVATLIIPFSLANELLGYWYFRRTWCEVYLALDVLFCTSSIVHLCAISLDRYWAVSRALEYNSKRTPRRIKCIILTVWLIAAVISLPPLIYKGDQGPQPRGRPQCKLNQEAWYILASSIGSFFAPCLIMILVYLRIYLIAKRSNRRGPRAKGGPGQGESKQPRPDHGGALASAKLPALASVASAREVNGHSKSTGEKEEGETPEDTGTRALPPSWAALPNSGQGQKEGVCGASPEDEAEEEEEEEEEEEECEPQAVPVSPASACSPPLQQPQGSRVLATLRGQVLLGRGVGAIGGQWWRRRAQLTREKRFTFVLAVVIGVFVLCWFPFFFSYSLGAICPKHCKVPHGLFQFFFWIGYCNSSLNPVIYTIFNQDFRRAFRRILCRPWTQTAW
Assay: Radioligand binding, adrenergic α2B (Protocol Group B)
Parameters: purchased Milipore (Millipore)
Conditions: 10 nM compound; Protocol Group B; 0.01 µM
Tag: 1.0 if measured Percentage inhibition of ligand binding, Adrenergic α2B (10 nM) is not below 30%, 0.0 if it is.

Example entries begin here.
INSERT INTO assay_data (compound, assigned_label) VALUES
  ('Cc1ccc2c(c1)c1c(n2CC(C)(O)c2cncc(F)c2)CCN(C)C1 (single isomer, unassigned) [46a]', 1.0),
  ('Cc1ccc2c(c1)c1c(n2CC(O)c2ccccn2)CC2CCCN2C1 (single isomer, unassigned) [45a]', 0.0),
  ('Cc1ccc2c(c1)c1c(n2CC(OCC2CCC2)c2ccncc2)CCN2CCCC12 (single isomer, unassigned) [138b]', 1.0),
  ('Cc1ccc2c(c1)c1c(n2CC(C)(O)c2cccnc2)CC(CO)N(C)C1 (single isomer, unassigned) [15a]', 0.0),
  ('Cc1ccc2c(c1)c1c(n2CC(C)(O)c2ccc(N(C)C)nc2)CCN(C)C1 (stereo not drawn) [compound 39]', 0.0),
  ('CC(O)(Cn1c2c(c3cc(F)cc(Cl)c31)C1CCCN1CC2)c1cccnc1 (single isomer, unassigned) [89d]', 1.0),
  ('OC(Cn1c2c(c3cc(Cl)cc(F)c31)C1CCCN1CC2)c1ccncc1 (single isomer, unassigned) [135d]', 0.0),
  ('Cc1cc(F)c2c(c1)c1c(n2CC(C)(O)c2cccnc2)CC2CCCN2C1 (single isomer, unassigned) [61b]', 0.0),
  ('Cc1ccc2c(c1)c1c(n2CC(O)c2ccccn2)CC2CCCN2C1 (single isomer, unassigned) [45c]', 0.0),
  ('Cc1cc(F)c2c(c1)c1c(n2CC(C)(O)c2ccncc2)CCN2CCCC12 (single isomer, unassigned) [81b]', 1.0);

Is it the case that CC(O)(Cn1c2c(c3cc(Cl)cc(F)c31)CN1CCCC1C2)c1ccncc1 (single isomer, unassigned) [86b] has Percentage inhibition of ligand binding, Adrenergic α2B (10 nM) reaching or exceeding 30%? 0.0

Entry Cc1ccc2c(c1)c1c(n2CC(C)(O)c2cccnc2)CC2CCCN2C1 (single isomer, unassigned) [38c] please 1.0

Entry CN1CCc2c(c3cc(C(F)(F)F)ccc3n2CC(OC2CCCC2)c2ccncc2)C1 (single isomer, unassigned) [60a] please 0.0

Entry Cc1ccc2c(c1)c1c(n2CC(C)(O)c2ccc(F)cc2)CC2CCC1N2C (single isomer, unassigned) [102a] please 0.0

Entry Cc1ccc2c(c1)c1c(n2CC(C)(O)c2ccncc2)CC2CCCN2C1 (single isomer, unassigned) [37b] please 0.0
